Values were extracted from PubChem BioAssay (NCI).

Consider the following compounds; for each one, report its growth.
Test system: OVCAR-5 ovarian
Assay: NCI-60 one-dose screen, 48 h (100 = growth as untreated, 0 = no growth, -100 = all killed)
Details: 10 µM unless noted
The panel holds about 83,000 compounds, 20% with a hit somewhere; the sample as a whole holds those more often.
Give bare numbers, in %.

Consider the worked cases shown below.
# Compound, Tested on, growth / %
rows = [
    ("Cn1c(=O)c2nc3c(=O)n(C)c(=O)n(C)c3nc2n(C)c1=O", "OVCAR-5 ovarian", 91.1),
    ("c1ccc(-c2ccc3ccccc3c2)cc1", "OVCAR-5 ovarian", 99.6),
]

For every listed record, write down its growth.
1. O=[N+]([O-])c1c(O)c(CNCCCO)cc(CNCCCO)c1O
2. C1C[S+]2CC[S+]1CC2

108
107

For every listed record, write down its growth.
1. CC1(c2ccccc2)CO1 (configuration not stated)
2. COc1cccc(C(=O)NNC(=O)c2cccc3ccccc23)c1

[97.5, 125]
